# Tested on: A673/TR/shEF
# METHOD_DESCRIPTION: cell viability (LOESS-normalised, relative to median of negative controls) (log2 ratio); higher = more viable cells (less compound effect), active = hit call of the paper (over 3 MAD below the median)
# APPLIED_CONDITIONS: 2.5 µM; library screen: screen1; EWS-FLI1 expression: low (doxycycline-induced shRNA knockdown); treatment time: 72 h
In all, about 3,200 compounds went through this assay and about 300 (9.4%) showed activity. Only a selection was taken, and actives are over-represented in it overall.
# cell viability (log2) per record follows

# MOLECULE, cell viability (log2)
rows = [
    ("CN=C(N)NCCCC(N)C(=O)O (stereo not drawn)", "-0.0108 (inactive)"),
    ("CC(=O)O[C@H]1C[C@@H](OC(C)=O)C(C)(C)C2C[C@@H](OC(C)=O)[C@@]3(C)C4=CC(=O)OC(=O)[C@]4(C)CCC3[C@]21C (stereo partly drawn)", "0.189 (inactive)"),
    ("CCC(C)CCCCC(=O)NC(CCNCS(=O)(=O)O)C(=O)NC(C(=O)NC(CCNCS(=O)(=O)O)C(=O)NC1CCNC(=O)C(C(C)O)NC(=O)C(CCNCS(=O)(=O)O)NC(=O)C(CCNCS(=O)(=O)O)NC(=O)C(CC(C)C)NC(=O)C(CC(C)C)NC(=O)C(CCNCS(=O)(=O)O)NC1=O)C(C)O (stereo not drawn)", "-0.0146 (inactive)"),
]

###

# Tested on: A673/TR/shEF
# METHOD_DESCRIPTION: cell viability (LOESS-normalised, relative to median of negative controls) (log2 ratio); higher = more viable cells (less compound effect), active = hit call of the paper (over 3 MAD below the median)
# APPLIED_CONDITIONS: 0.308 µM; library screen: screen3; EWS-FLI1 expression: high (no doxycycline); treatment time: 72 h
About 300 (9.4%) of roughly 3,200 compounds showed activity. Many of the other results were omitted from the sample, so actives are more common in it than they were.
Recorded cell viability (log2) determines the label; the label ranges are lo = under -0.03, mid = from -0.03 up to 0.07, hi = 0.07 and over

# STRUCTURE_AS_SMILES, ASSAY_SYSTEM, ASSIGNED_LABEL
rows = [
    ("Nc1ncn([C@H]2C[C@H](O)[C@@H](CO)O2)c(=O)n1", "A673/TR/shEF", "mid"),
    ("O=C1[C@H](Cc2ccc(O)cc2)N2C(=O)CCN(C(=O)NCc3ccccc3)[C@H]2CN1Cc1cccc2ccccc12", "A673/TR/shEF", "mid"),
    ("O=C1c2c(O)ccc(O)c2C(=O)c2c(NCCNCCO)ccc(NCCNCCO)c21", "A673/TR/shEF", "lo"),
    ("CCCSc1ccc2nc(NC(=O)OC)[nH]c2c1", "A673/TR/shEF", "mid"),
    ("CCN(CC)CCNC(=O)c1c(C)[nH]c(/C=C2\\C(=O)Nc3ccc(F)cc32)c1C", "A673/TR/shEF", "hi"),
    ("Nc1ccn([C@@H]2O[C@H](CO)[C@@H](O)C2(F)F)c(=O)n1", "A673/TR/shEF", "lo"),
    ("CCc1nc(N)nc(N)c1-c1ccc(Cl)cc1", "A673/TR/shEF", "hi"),
    ("NC(=O)c1ncn([C@@H]2O[C@H](CO)[C@@H](O)[C@H]2O)n1", "A673/TR/shEF", "mid"),
    ("Nc1ccn([C@@H]2CS[C@H](CO)O2)c(=O)n1", "A673/TR/shEF", "hi"),
    ("Nc1ccn([C@@H]2O[C@H](CO)[C@@H](O)[C@@H]2O)c(=O)n1", "A673/TR/shEF", "lo"),
]

###

# Tested on: A673/TR/shEF
# METHOD_DESCRIPTION: cell viability (LOESS-normalised, relative to median of negative controls) (log2 ratio); higher = more viable cells (less compound effect), active = hit call of the paper (over 3 MAD below the median)
# APPLIED_CONDITIONS: 2.5 µM; library screen: screen1; EWS-FLI1 expression: low (doxycycline-induced shRNA knockdown); treatment time: 72 h
Screen size: about 3,200 compounds; about 300 (9.4%) showed activity. The entries come from a sample that favours actives as a whole.
Field 'label' (enum: satisfied / not satisfied). Set to satisfied when cell viability (log2) is strictly under 0.06; else not satisfied.

# MOLECULE, ASSIGNED_LABEL
measured = [
    ("C/C(=C\\CO)CCC[C@H](C)CCC[C@H](C)CCCC(C)C", "satisfied"),
    ("COc1ccc(OC)c(C2NC(=O)NC(C)=C2C(=O)Nc2ccccc2Cl)c1 (centres undefined)", "not satisfied"),
    ("CC1(C)[C@@H](O[C@@H]2O[C@H](C(=O)O)[C@@H](O)[C@H](O)[C@H]2O[C@@H]2O[C@H](C(=O)O)[C@@H](O)[C@H](O)[C@H]2O)CC[C@]2(C)[C@H]3C(=O)C=C4[C@@H]5C[C@@](C)(C(=O)O)CC[C@]5(C)CC[C@@]4(C)[C@]3(C)CC[C@@H]12", "not satisfied"),
    ("O=C(Cc1ccccc1)NO", "satisfied"),
    ("CC1(C)C(=O)[C@@H]2C[C@@]3(O)C4=CC(=O)O[C@@H](c5ccoc5)[C@]4(C)CCC3C(C)(C2=O)[C@H]1CC(=O)O (some centres undefined)", "satisfied"),
    ("CC1=CCCC(=O)C2CC(C)(C)C2CC1 (centres undefined)", "not satisfied"),
    ("O=C1c2ccccc2-c2n[nH]c3cccc1c23", "not satisfied"),
    ("O=C(O)c1cc2ccccc2[nH]1", "not satisfied"),
    ("CC(C)NCC(O)COc1cccc2ccccc12 (centres undefined)", "satisfied"),
    ("O=C(O)c1cc2cc(F)ccc2[nH]1", "satisfied"),
    ("CC(=O)O[C@@H]1c2c(ccc3ccc(=O)oc23)OC(C)(C)[C@@H]1OC(=O)CC(C)C", "satisfied"),
    ("CCCCCCCCCCCCCCCCCC(=O)OC(CC(=O)O)C[N+](C)(C)C (centres undefined)", "satisfied"),
    ("CCCCCCCCCCCCCCCC(=O)O[C@H](CC(=O)[O-])C[N+](C)(C)C", "satisfied"),
    ("Cc1nc2ccc(NC(=S)N3CCCC3)cc2nc1C", "not satisfied"),
    ("CCN(CC)CCNC(=O)c1cc(S(C)(=O)=O)ccc1OC", "not satisfied"),
    ("C[C@H](C[C@@H](O)[C@@H]1OC1(C)C)[C@@H]1CC[C@]2(C)C3=CC[C@H]4C(C)(C)C(=O)CC[C@]4(C)[C@H]3CC[C@@]12C", "not satisfied"),
    ("CC(=O)O[C@@H]1CC2C(C)(C)CCC[C@]2(C)C2CC[C@]3(C)C(=CC(=O)O[C@H]3c3ccoc3)[C@@]21C (some centres undefined)", "not satisfied"),
    ("CC(=O)OCC(=O)[C@@]1(O)CC[C@H]2[C@@H]3CC[C@@H]4C[C@H](O)CC[C@]4(C)[C@H]3C(=O)C[C@@]21C", "satisfied"),
    ("CCN(CC)CCNC(=O)c1ccc(N)cc1", "not satisfied"),
]

###

# Tested on: A673/TR/shEF
# METHOD_DESCRIPTION: cell viability (LOESS-normalised, relative to median of negative controls) (log2 ratio); higher = more viable cells (less compound effect), active = hit call of the paper (over 3 MAD below the median)
# APPLIED_CONDITIONS: 2.5 µM; library screen: screen1; EWS-FLI1 expression: high (no doxycycline); treatment time: 72 h
About 300 (9.4%) of roughly 3,200 compounds showed activity. The sample as a whole holds a higher share of actives than the screen did.
Classes used: active, inactive

# MOLECULE, ASSIGNED_LABEL
rows = [
    ("COc1ccc(NC(=O)/C(=C/c2cccs2)NC(=O)c2cccs2)cc1", "inactive"),
    ("CC[C@H](C)C(=O)O[C@H]1C[C@@H](C)C=C2C=C[C@H](C)[C@H](CC[C@@H]3C[C@@H](O)CC(=O)O3)[C@H]21", "inactive"),
    ("Cc1cn([C@H]2C[C@H](N=[N+]=[N-])[C@@H](CO)O2)c(=O)[nH]c1=O", "active"),
    ("COc1ccc(C2CC(=O)c3c(OC)cc(O)cc3O2)cc1 (stereo not given)", "inactive"),
    ("NC(Cc1ccc(F)cc1)C(=O)O (stereo not given)", "inactive"),
    ("C[C@H]1O[C@@H](n2cc(F)c(=O)[nH]c2=O)[C@H](O)[C@@H]1O", "active"),
    ("O=C(O)c1cc(NCc2cc(O)ccc2O)ccc1O", "active"),
    ("CC1=CCCC(=O)C2CC(C)(C)C2CC1 (stereo not given)", "inactive"),
    ("NCCC(=O)N[C@@H](Cc1cnc[nH]1)C(=O)O", "inactive"),
    ("COC(=O)c1c(C)cc(OC(=O)c2c(C)cc(O)c(CO)c2O)c(C)c1O", "inactive"),
    ("O=C(O)c1cc(O)ccc1O", "inactive"),
    ("CCC1(c2ccccc2)C(=O)NCNC1=O", "inactive"),
    ("Cc1cc(=O)oc2cc(O)c(O)cc12", "inactive"),
    ("CC(C)CCC[C@@H](C)[C@H]1CC[C@H]2[C@@H]3CC[C@@H]4C[C@H](O)CC[C@]4(C)[C@H]3CC[C@]12C", "inactive"),
    ("COc1ccc(OC)c(CN2CCN(Cc3ccccc3OC)CC2)c1", "inactive"),
    ("CC1(C)C=CC(=O)[C@@]2(C)C1CC(=O)[C@]1(C)C2CC[C@@]2(C)[C@H](c3ccoc3)OC(=O)C3OC321 (stereo not given in full)", "inactive"),
    ("COc1ccc(C(C)C(=O)c2ccc(O)cc2O)cc1 (stereo not given)", "inactive"),
    ("CC(C(=O)O)c1ccc(C(=O)c2cccs2)cc1 (stereo not given)", "inactive"),
    ("COC(=O)C(C(C)=O)C(C)=O", "inactive"),
    ("CC1(C)CC[C@]2(C)CC[C@]3(C)C(=CC[C@@H]4[C@@]5(C)CC[C@H](O)C(C)(C)[C@@H]5CC[C@]43C)[C@@H]2C1", "inactive"),
    ("CCN(CC)CCNC(=O)c1ccc(N)cc1", "inactive"),
    ("CCOC(=O)c1c[nH]c2c(Cl)c(Cl)ccc2c1=O", "inactive"),
    ("CCN(CCCc1ccccc1)CCCc1ccccc1", "inactive"),
    ("NC1(C(=O)O)CC1", "inactive"),
    ("Nc1ncnc2c1c(I)cn2[C@@H]1O[C@H](CO)[C@@H](O)[C@H]1O", "active"),
    ("CCC1(c2ccccc2)NC(=O)N(C)C1=O (stereo not given)", "inactive"),
    ("CCN(CC)CCNC(=O)c1cc(S(C)(=O)=O)ccc1OC", "inactive"),
    ("CC(C)c1c(O)ccc2c1CC[C@H]1[C@@](C)(CO)CCC[C@]21C", "inactive"),
    ("CC[C@H](C)C(=O)O[C@H]1CCC=C2C=C[C@H](C)[C@H](CC[C@@H]3C[C@@H](O)CC(=O)O3)[C@H]21", "inactive"),
    ("C=C1C2CC[C@@]3(C)[C@H](c4ccoc4)OC(=O)C[C@]13O[C@H]1C[C@H](OC(C)=O)C(C)(C)[C@H](CC(=O)OC)[C@@]21C", "inactive"),
    ("COc1ccccc1C=CC(=O)O", "inactive"),
    ("CCCC(CC)CCOC(=O)COc1cc(Cl)c(Cl)cc1Cl (stereo not given)", "inactive"),
    ("NCCCCCCNS(=O)(=O)c1cccc2c(Cl)cccc12", "inactive"),
    ("O=c1[nH]c(=O)n([C@H]2C[C@H](O)[C@@H](CO)O2)cc1C(F)(F)F", "inactive"),
    ("COC1=CC(=O)C(O)=C/C1=C/C=C/c1ccccc1", "inactive"),
    ("COC(=O)Nc1nc2ccc(Sc3ccccc3)cc2[nH]1", "inactive"),
    ("COc1ccc(/C=C/C(=O)O)cc1OC", "inactive"),
    ("CC(C(=O)O)c1cccc(C(=O)c2ccccc2)c1 (stereo not given)", "inactive"),
    ("O=C(O)c1cc(N(Cc2ccccc2O)Cc2cc(O)ccc2O)ccc1O", "inactive"),
    ("COc1cc2c(cc1O)C(Cc1ccc(O)cc1)N(C)CC2 (stereo not given)", "inactive"),
    ("COc1c(C=O)c(O)cc2c1C(=O)c1ccccc1C2=O", "inactive"),
    ("CC(=O)OC1CC[C@@]2(C)C(CC[C@H]3[C@@H]4CC=C(C(C)=O)[C@@]4(C)C(=O)C[C@@H]32)C1 (stereo not given in full)", "inactive"),
    ("COC(=O)Nc1nc2ccc(C(=O)c3cccs3)cc2[nH]1", "active"),
    ("COC(=O)C1=C(C)N=c2s/c(=C/c3ccc(OC)cc3OC)c(=O)n2C1c1cccs1 (stereo not given)", "inactive"),
    ("COc1ccc(OC)c(CN2CCN(Cc3ccc(OC)c(OC)c3)CC2)c1", "inactive"),
]
